The measurements presented in this section are drawn from patent US20240059784A1.

Test target: T1, human TfR ECD (His-tagged) (human, UniProt P02786 89-760)
T1 construct: also called hTfR-ECD-6His; his-tagged hTfR-ECD
T1 sequence (P02786 other isoform, or with tags, fused parts or gaps): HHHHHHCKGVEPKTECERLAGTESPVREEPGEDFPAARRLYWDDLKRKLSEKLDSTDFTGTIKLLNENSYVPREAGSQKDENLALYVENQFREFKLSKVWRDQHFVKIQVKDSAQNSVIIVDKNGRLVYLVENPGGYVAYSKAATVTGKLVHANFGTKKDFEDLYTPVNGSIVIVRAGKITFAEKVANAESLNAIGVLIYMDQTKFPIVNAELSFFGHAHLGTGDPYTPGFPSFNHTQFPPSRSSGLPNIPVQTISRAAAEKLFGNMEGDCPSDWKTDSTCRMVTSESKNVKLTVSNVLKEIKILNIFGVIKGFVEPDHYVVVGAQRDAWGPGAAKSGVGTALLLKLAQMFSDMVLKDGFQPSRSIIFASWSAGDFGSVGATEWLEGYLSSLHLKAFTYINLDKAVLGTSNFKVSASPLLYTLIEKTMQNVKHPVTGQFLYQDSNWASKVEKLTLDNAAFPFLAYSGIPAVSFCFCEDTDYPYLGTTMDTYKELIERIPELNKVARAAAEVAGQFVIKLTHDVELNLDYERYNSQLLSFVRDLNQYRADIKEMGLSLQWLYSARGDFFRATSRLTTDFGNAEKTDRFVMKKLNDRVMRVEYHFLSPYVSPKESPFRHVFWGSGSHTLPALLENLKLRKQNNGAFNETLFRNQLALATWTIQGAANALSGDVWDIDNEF
Experiment description: SPR (Biacore 8K), 25 C; His-tagged TfR ECD captured by anti-His antibody, TBP as analyte; single-cycle kinetics, 2-state fit

>  <Binder>
TBP6 (TBD6 Fab-hIgG4PAA Fc) (antibody, V domains shown, Fab-Fc format, one HC and one LC) VH: EVQLVESGGGLVQPGGSLRLSCAASGFTFRTYWMHWVRQAPGKGLVWVSRINSDGSRTNYADSVKGRFTISRDNAKNTLYLQMNSLRAEDTAVYYCARSSYAFDVWGQGTLVTVSS VL: DIVMTQTPLSLPVTPGEPASISCRSSQSLLDSDDGSTYLDWYLQKPGQSPQLLIYLLSNRASGVPDRFSGSGSGTDFTLKISRVEAEDVGVYYCMQRIEFPLTFGGGTKVEIKR

>  <Kd, pM>
60

$$$$
>  <Binder>
TBP5 (TBD5 Fab-hIgG4PAA Fc) (antibody, V domains shown, Fab-Fc format, one HC and one LC) VH: EVQLVESGGGLVQPGGSLRLSCAASGFTFRTYWMHWVRQAPGKGLLWVSRINGDGSRTNYADSVKGRFTISRDNAKKTLYLQMNSLRAEDTAVYFCARSSYAFDVWGQGTMVTVSS VL: DVVMTQTPLSLPVTPGEPASISCRSSQSLLDSDDGSTYLDWYLQKPGQSPQLLIYLLSNRASGVPDRFSGSGSGTVFTLKISSVEAADVGVYYCMQRIEFPLTFGGGTKVEIKR

>  <Kd, pM>
590

$$$$
>  <Binder>
TBP1 (TBD1 Fab-hIgG4PAA Fc) (antibody, V domains shown) VH: EVQLVESGGGLVKPGGSLRLSCVASGFTFSSYSMNWVRQAPGKGLEWVSSISRSSSYIYYADSVKGRFTISRDNAKNSLYLQMNSLRAEDTAVYYCAREHGYSNSDAFDIWGQGTLVTVSS VL: DIQMTQSPSAMSASVGDRVTITCRASQGISNYLAWFQQKPGKVPKRLIYAASSLQSGVPSRFSGSGSGTEFTLTISSLQPEDFATYYCLQHNSYPRTFGQGTKVEIKR

>  <Kd, pM>
110

$$$$
>  <Binder>
TBP3 (TBD3 Fab-hIgG4PAA Fc) (antibody, V domains shown, Fab-Fc format, one HC and one LC) VH: EVQLVESGGGLVKPGGSLRLSCVASGFTFSSYSMNWVRQAPGKGLEWVSSISRSSSYIYYADSVKGRFTISRDNAKNSLYLQMNSLRAEDTAVYYCARIHGYSNSDAFDIWGQGTLVTVSS VL: DIQMTQSPSAMSASVGDRVTITCRASQGISHYLVWFQQKPGKVPKRLIYAASSLQSGVPSRFSGSGSGTEFTLTISSLQPEDFATYYCLQHNSYPRTFGQGTKVEIKR

>  <Kd, pM>
0.048

$$$$
